assayedTarget: Recombinant Human ENPP-1 Protein (Homo sapiens (Human))
procedureText: ENPP1 Assay (TMP)
Assay type: biochemical
condition: methanesulfonate; read-out: IC50
reportedEndpoint: IC50 (nM)
Give bare numbers, in nM.

Data request: Please give the documented IC50 of COc1cc2ncnc(N3CCCN(S(N)(=O)=O)CC3)c2cc1OC [Compound 015-MES, methanesulfonate]
Data returned: 6.38

----------
assayedTarget: Recombinant Human ENPP-1 Protein (Homo sapiens (Human))
procedureText: ENPP1 Assay (TMP)
Assay type: biochemical
condition: hydrochloride salt; read-out: IC50
reportedEndpoint: pIC50
Answers are plain numbers, as −log10 of the molar value.

Data request: Please give the documented pIC50 of COc1cc2ncnc(N3CCCN(S(N)(=O)=O)CC3)c2cc1OC.Cl [Compound 015-HCl]
Data returned: 8.22

----------
assayedTarget: Recombinant Human ENPP-1 Protein (Homo sapiens (Human), UniProt P22413)
Sequence (P22413 whole entry, looked up): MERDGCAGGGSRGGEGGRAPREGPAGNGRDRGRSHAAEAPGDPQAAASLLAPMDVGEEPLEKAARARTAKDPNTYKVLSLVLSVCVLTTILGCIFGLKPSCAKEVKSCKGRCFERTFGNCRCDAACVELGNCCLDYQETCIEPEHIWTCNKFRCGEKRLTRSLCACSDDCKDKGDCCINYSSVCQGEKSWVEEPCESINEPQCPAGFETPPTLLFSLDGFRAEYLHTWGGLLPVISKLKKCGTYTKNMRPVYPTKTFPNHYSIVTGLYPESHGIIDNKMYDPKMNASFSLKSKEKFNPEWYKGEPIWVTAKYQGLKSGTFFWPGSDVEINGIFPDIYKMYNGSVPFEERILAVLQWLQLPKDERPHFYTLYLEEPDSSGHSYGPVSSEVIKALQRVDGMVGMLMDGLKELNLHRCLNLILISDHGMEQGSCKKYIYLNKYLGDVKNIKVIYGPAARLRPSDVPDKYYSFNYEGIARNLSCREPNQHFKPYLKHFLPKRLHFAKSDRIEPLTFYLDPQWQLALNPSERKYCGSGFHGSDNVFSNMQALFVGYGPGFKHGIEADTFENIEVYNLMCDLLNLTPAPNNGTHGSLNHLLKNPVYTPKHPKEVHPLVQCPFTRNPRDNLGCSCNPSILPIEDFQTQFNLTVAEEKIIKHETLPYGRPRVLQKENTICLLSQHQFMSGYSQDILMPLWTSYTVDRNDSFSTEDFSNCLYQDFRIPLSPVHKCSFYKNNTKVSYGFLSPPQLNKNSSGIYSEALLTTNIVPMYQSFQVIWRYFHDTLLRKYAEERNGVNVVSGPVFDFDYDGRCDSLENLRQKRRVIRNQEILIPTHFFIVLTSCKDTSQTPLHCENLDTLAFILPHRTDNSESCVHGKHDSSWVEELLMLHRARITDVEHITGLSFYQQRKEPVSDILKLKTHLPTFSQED
Type: binding
condition: SYPRO Orange protein melt
Structures can show the parent of a compound that is named as a salt.
reportedEndpoint: Thermal Shift @10 uM (dTm (o C.))

For orientation, consider the following solved cases.
- compound: "COc1cc2ncnc(-c3ccc(NCCNS(N)(=O)=O)nc3)c2cc1OC.Cl [Compound 048]"
  reportedEndpoint: "Thermal Shift @10 uM (dTm (o C.))"
  result: "$$ ($$ <3o C.)"
- compound: "COc1cc2ncnc(N3CCCN(CCNS(N)(=O)=O)CC3)c2cc1OC.Cl [Compound 063]"
  reportedEndpoint: "Thermal Shift @10 uM (dTm (o C.))"
  result: "$$ ($$ <3o C.)"
- compound: "COc1cc2ncnc(SCCCCNS(N)(=O)=O)c2cc1OC [Compound 058, hydrochloride]"
  reportedEndpoint: "Thermal Shift @10 uM (dTm (o C.))"
  result: "$$$ ($$$ >3o C.)"
- compound: "COc1cc2ncnc(-c3ccc(CNS(N)(=O)=O)nc3)c2cc1OC [Compound 047]"
  reportedEndpoint: "Thermal Shift @10 uM (dTm (o C.))"
  result: "$$ ($$ <3o C.)"
- compound: "COc1cc2ncnc(NCCCCNS(N)(=O)=O)c2cc1OC [Compound 056]"
  reportedEndpoint: "Thermal Shift @10 uM (dTm (o C.))"
  result: "$$ ($$ <3o C.)"

Please supply Thermal Shift @10 uM (dTm (o C.)) for each of the following items, keeping them in order.
1. COc1cc2ncnc(N3CCCN(C(=O)CNS(N)(=O)=O)CC3)c2cc1OC [Compound 065]
2. COc1cc2ncnc(NCCCNS(N)(=O)=O)c2cc1OC [Compound 055, hydrochloride]
3. COc1cc2ncnc(N3CCCN(C(=O)CNS(N)(=O)=O)CC3)c2cc1OC.Cl [Compound 064]

Data returned:
1: $$$ ($$$ >3o C.); 2: $$ ($$ <3o C.); 3: $$ ($$ <3o C.)

----------
Kindly supply the reported pIC50 values for the records listed here.
assayedTarget: Recombinant Human ENPP-1 Protein (Homo sapiens (Human))
procedureText: ENPP1 Assay (TMP)
Assay type: biochemical
Give bare numbers, as −log10 of the molar value.

- molecule: "COc1cc2ncnc(N3CCCN(C(=O)CNS(N)(=O)=O)CC3)c2cc1OC.Cl [Compound 064, hydrochloride]"
  pIC50: 7.14

Lab note: next molecule to report on.
Data request: Please give the documented pIC50 of COc1cc2ncc(C#N)c(N3CCCC(CCNS(N)(=O)=O)CC3)c2cc1OC (racemic)
Data returned: 9.03
